Target or system Serine/threonine-protein kinase mTOR (Homo sapiens); recorded quantity IC50.
I only need the number, in nM, no unit after it.

Here are 3 compounds together with their reported answers.
molecule_smiles: Oc1c(Br)cc(/C=N/Nc2nc3c(c(N4CCOCC4)n2)CSCC3)cc1Br
experimental_system: Serine/threonine-protein kinase mTOR (Homo sapiens)
IC50, nM: 2670

molecule_smiles: O=S1(=O)CCc2nc(N/N=C/c3cc(Br)c(O)c(Br)c3)nc(N3CCOCC3)c2C1
experimental_system: Serine/threonine-protein kinase mTOR (Homo sapiens)
IC50, nM: 6930

molecule_smiles: COc1cc(/C=N/Nc2nc3c(c(N4CCOCC4)n2)CS(=O)(=O)CC3)cc(OC)c1O
experimental_system: Serine/threonine-protein kinase mTOR (Homo sapiens)
IC50, nM: 2200

Ask | # value lookup — system Serine/threonine-protein kinase mTOR (Homo sapiens), readout IC50, item COc1cc(/C=N/Nc2nc3c(c(N4CCOCC4)n2)CSCC3)cc(OC)c1O
Reply | 800

====

Biological target: Phosphatidylinositol 4,5-bisphosphate 3-kinase catalytic subunit alpha isoform (Homo sapiens) (UniProt P42336)
Sequence (P42336 whole entry, canonical isoform): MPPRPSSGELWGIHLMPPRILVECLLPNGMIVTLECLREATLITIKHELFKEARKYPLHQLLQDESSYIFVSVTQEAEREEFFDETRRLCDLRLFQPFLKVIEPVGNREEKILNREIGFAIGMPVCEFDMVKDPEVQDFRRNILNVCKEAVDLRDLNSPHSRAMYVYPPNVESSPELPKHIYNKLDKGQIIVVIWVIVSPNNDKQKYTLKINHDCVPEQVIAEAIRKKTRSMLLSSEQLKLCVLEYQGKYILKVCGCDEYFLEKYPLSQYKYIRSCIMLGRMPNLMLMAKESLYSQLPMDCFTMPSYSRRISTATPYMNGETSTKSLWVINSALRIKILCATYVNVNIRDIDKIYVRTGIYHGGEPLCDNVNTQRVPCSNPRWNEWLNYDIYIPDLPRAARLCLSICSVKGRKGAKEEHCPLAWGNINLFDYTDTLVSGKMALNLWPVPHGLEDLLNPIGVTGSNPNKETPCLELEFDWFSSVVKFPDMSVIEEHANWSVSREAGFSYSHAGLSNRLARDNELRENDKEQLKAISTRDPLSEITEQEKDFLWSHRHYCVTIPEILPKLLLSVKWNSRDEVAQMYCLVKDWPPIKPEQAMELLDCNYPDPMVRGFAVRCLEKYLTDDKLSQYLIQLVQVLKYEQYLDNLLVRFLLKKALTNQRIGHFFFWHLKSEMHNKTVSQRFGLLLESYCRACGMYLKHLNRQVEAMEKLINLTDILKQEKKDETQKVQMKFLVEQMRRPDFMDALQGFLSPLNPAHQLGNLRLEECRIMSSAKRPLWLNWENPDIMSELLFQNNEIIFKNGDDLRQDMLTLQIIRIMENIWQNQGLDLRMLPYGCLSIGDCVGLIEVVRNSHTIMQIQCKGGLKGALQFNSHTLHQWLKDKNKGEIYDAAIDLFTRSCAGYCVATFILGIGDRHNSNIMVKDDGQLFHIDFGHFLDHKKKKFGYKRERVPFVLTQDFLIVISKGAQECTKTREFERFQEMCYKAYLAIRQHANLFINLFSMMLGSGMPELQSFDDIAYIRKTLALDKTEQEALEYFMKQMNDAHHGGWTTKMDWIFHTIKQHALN
Assay: Inhibition of PI3K-alpha (unknown origin) using l-alpha-phosphatidylinositol as substrate at 10 uM after 60 mins by luminescence assay
Below is a list of entries, each paired with its recorded inhibition value.
I only need the number, in %, no unit after it.

molecule_smiles: COc1cc(/C=N/Nc2nc3c(c(N4CCOCC4)n2)CSCC3)cc(OC)c1O
inhibition / %: 12

molecule_smiles: Oc1c(Br)cc(/C=N/Nc2nc3c(c(N4CCOCC4)n2)CSCC3)cc1Br
inhibition / %: 21.6

molecule_smiles: COc1cc(/C=N/Nc2nc3c(c(N4CCOCC4)n2)CS(=O)(=O)CC3)cc(OC)c1O
inhibition / %: 6.2

molecule_smiles: O=S1(=O)CCc2nc(N/N=C/c3cc(Br)c(O)c(Br)c3)nc(N3CCOCC3)c2C1
inhibition / %: 24.9

The record that follows has no inhibition shown yet.
Ask | Looking for the measured inhibition of Oc1ccc(/C=N/Nc2nc3c(c(N4CCOCC4)n2)CSCC3)cc1Br , can you help?
Reply | 18.8
